Cited source for all entries: ChEMBL document CHEMBL6153105

System: Acinetobacter baumannii
Assay: Antibacterial activity against Acinetobacter baumannii MB5973 incubated for 20 hrs
Format: functional
Assay readout: MIC (µg/mL)

Reference set, count: 3
>>> experimental_value("CO[C@H]1/C=C/O[C@@]2(C)Oc3c(C)c(O)c4c(O)c(c(/C=N/N5CCN(C)CC5)c(O)c4c3C2=O)NC(=O)/C(C)=C\\C=C\\[C@H](C)[C@H](O)[C@@H](C)[C@@H](O)[C@@H](C)[C@H](OC(C)=O)[C@@H]1C")
2.5
>>> experimental_value("[C-]#[N+]C(=C)[C@](Cc1ccc(OC)cc1)([N+]#[C-])[C@H]1C[C@@H](O)C=C[C@@H]1OC(C)=O")
1
>>> experimental_value("[C-]#[N+]C(=C)[C@](Cc1ccc(OC)cc1)([N+]#[C-])[C@H]1C[C@@H](O)CC[C@@H]1OC(=O)CO")
0.25

A. [C-]#[N+]C(=C)[C@](Cc1ccc(OC)cc1)([N+]#[C-])[C@H]1C[C@@H](O)CC[C@@H]1OC(C)=O
B. [C-]#[N+]C(=C)[C@](Cc1ccc(OC)cc1)([N+]#[C-])[C@H]1C[C@@H](O)C=C[C@@H]1OC(=O)CO
Request: Task for the reader: decide whether A or B has the larger MIC. Please respond with the label that marks your chosen entry.
Result: A
(A: 0.5 µg/mL, B: 0.25 µg/mL)
